Measured values drawn from patent US8115005B2 for this set.

Recorded measurements of pIC50, one per entry
Target: recombinant human LTA4 hydrolase (Homo sapiens, UniProt P09960)
Construct: A human LTA4 hydrolase full-length cDNA clone (NM_000895) was purchased from OriGene Technologies; own knowledge that pDEST17 adds an N-terminal 6xHis, consistent with the Ni-NTA purification) (N)
Sequence (P09960 whole entry): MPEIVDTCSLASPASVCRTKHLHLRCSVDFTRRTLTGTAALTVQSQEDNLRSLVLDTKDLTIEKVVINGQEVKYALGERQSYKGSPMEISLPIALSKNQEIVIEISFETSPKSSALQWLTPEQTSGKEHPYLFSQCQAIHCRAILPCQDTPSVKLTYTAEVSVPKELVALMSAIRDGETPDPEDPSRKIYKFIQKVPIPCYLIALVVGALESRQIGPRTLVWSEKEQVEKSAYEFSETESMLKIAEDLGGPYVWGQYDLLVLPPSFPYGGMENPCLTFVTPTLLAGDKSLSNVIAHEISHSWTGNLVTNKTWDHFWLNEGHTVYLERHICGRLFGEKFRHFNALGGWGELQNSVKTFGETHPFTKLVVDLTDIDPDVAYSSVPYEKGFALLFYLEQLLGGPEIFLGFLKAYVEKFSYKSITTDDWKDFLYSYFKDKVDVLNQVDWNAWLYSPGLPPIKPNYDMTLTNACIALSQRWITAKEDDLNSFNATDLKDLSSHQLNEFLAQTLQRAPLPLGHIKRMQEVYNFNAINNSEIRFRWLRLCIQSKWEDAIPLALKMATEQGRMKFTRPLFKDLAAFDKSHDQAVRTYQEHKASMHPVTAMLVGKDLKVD
Test: In vitro assay testing inhibitory activity against purified recombinant human LTA4 hydrolase
Details: LTB4 formation; table does not say which of the two described assays (enzyme or human whole blood)
pIC50: −log10 of the molar value. Structures can show the parent of a compound that is named as a salt.

Example entries begin here.
{"columns": ["molecule", "pIC50"],
 "data": [
  ["FC(F)(F)c1ccnn1-c1ccc(OCCN2CCCCC2)cc1", "4.70 to 5.30"],
  ["Cc1cc(C(F)(F)F)n(-c2ccc(OCCN3CCCCC3)cc2)n1", "> 5.30"],
  ["c1ccn(-c2ccc(OCCN3CCCCC3)cc2)c1", "> 5.30"],
  ["Cc1cc(C)n(-c2ccc(OCCN3CCCCC3)cc2)n1", "> 5.30"],
  ["c1cnn(-c2ccc(OCCN3CCCCC3)cc2)c1", "4.70 to 5.30"],
  ["c1ccn(-c2ccc(OC[C@H]3CCCN3)cc2)c1 [Example 7, hydrochloride]", "> 5.30"]
]}

Return pIC50 measured with recombinant human LTA4 hydrolase (Homo sapiens, UniProt P09960) given this molecule: `Cc1c(C(F)F)cnn1-c1ccc(OCCN2CCCCC2)cc1`
4.70 to 5.30

Could you do the same for `O=Cc1cccn1-c1ccc(OCCN2CCCCC2)cc1` , please?
> 5.30

Do the same for `Brc1cccn1-c1ccc(OCCN2CCCCC2)cc1` please
> 5.30

Lookup `Cc1ccn(-c2ccc(OCCN3CCCCC3)cc2)n1`
4.70 to 5.30
